tested on: P. falciparum stage V gametocytes; design: BacTiter-Glo ATP luminescence viability of purified stage V gametocytes in 384-well plates, per cent inhibition versus DMSO; conditions: 48 h, 5 µM; inhibitor
The campaign covered roughly 13,000 compounds. About 3,200 (25%) showed an effect of 50% or more. Some of the results follow.
This section presents compounds with their documented % Inhibition values.
Kindly answer with a numeric value in %, unit omitted.

{"compound": "COc1cc(NC(=O)c2ccc3oc4ccccc4c3c2)ccc1OCCN1CCCCC1 [TCMDC-140701]", "value-units": "%", "% Inhibition": -7.89}
{"compound": "COc1cc(NC(=O)c2sc(-c3ccc(Cl)cc3)cc2Cl)ccc1OCCN1CCCC1 [TCMDC-135556]", "value-units": "%", "% Inhibition": -58.99}

## Task Can you share its % Inhibition? I mean this compound: COc1cc(NC(=O)c2sc(-c3ccc(Cl)cc3)cc2NC(=O)c2cccnc2)ccc1OCCN1CCCC1 [TCMDC-135397]
## Result 125.5

## Task Can you share its % Inhibition? I mean this compound: COc1ccc(NC(=O)/C=C/c2ccccc2Cl)cc1OCCN1CCN(c2ccncc2)CC1 [TCMDC-140732]
## Result 4.813

----------
system: P. falciparum stage V gametocytes; set-up: BacTiter-Glo ATP luminescence viability of purified stage V gametocytes in 384-well plates, per cent inhibition versus DMSO; conditions: 48 h, 5 µM; inhibitor
About 3,200 (25%) of roughly 13,000 compounds showed an effect of 50% or more. The list shows a part of the results.
endpoint: % Inhibition (%)
Kindly answer with a numeric value in %, unit omitted.

{"molecule": "O=C(Cn1cc(C=C2SC(=NC3CCCC3)N(C3CCCC3)C2=O)c2ccccc21)N1CCCC1 [TCMDC-124810]", "% Inhibition (%)": -5.018}
{"molecule": "CCC(C)CN1CCN(c2ccc(NC(=O)c3cccs3)cc2)CC1C (stereo not shown) [TCMDC-134997]", "% Inhibition (%)": 0.3581}
{"molecule": "Cc1cc(Cl)c(S(=O)(=O)N(C)c2ccccc2)cc1OCC(=O)NC1CCCCC1 [TCMDC-124368]", "% Inhibition (%)": -27.39}

## Task Recall the recorded % Inhibition for CN(C)c1ccc2c(c1)Sc1cc(N(C)C)ccc1N2C(=O)c1cccc(C(=O)O)c1 [TCMDC-124169] with P. falciparum stage V gametocytes and state it.
## Result 30.57

## Task Recall the recorded % Inhibition for CC(=O)CSC(C=Cc1ccc(N(C)C)cc1)=Nc1ccccc1 [TCMDC-137558] with P. falciparum stage V gametocytes and state it.
## Result -4.21

## Task Recall the recorded % Inhibition for O=c1c2sc(-c3ccc(Cl)cc3)cc2ncn1Cc1ccc(OCCN2CCCC2)c2ccccc12 [TCMDC-135387] with P. falciparum stage V gametocytes and state it.
## Result 24.51

## Task Recall the recorded % Inhibition for O=C(Nc1ccc(-c2cccc(-c3nc4ccccc4[nH]3)c2)cc1)Nc1ccc(F)c(F)c1F [TCMDC-133237] with P. falciparum stage V gametocytes and state it.
## Result 3.705

## Task Recall the recorded % Inhibition for CC(C)N1CCC(N(Cc2ccc(-c3ccc(C(F)(F)F)cc3)cc2)C(=O)Cn2c(SCc3cccc(F)c3F)nc(=O)c3ccccc32)CC1 [TCMDC-141312] with P. falciparum stage V gametocytes and state it.
## Result 121.2

## Task Recall the recorded % Inhibition for FC(F)(F)c1ccc2c(NCCc3ccccc3)ccnc2c1 [TCMDC-138552] with P. falciparum stage V gametocytes and state it.
## Result -21.17

## Task Recall the recorded % Inhibition for Cc1cc(N2CCOCC2)nc(Nc2ccc(NC(=O)c3cccc4ccccc34)cc2)n1 [TCMDC-124962] with P. falciparum stage V gametocytes and state it.
## Result 3.103

## Task Recall the recorded % Inhibition for NC(=O)c1cccc(C(=O)Nc2ccc(-c3cccc(-c4nc5ccc(F)cc5[nH]4)c3)cc2)c1 [TCMDC-132196] with P. falciparum stage V gametocytes and state it.
## Result -0.7681

## Task Recall the recorded % Inhibition for O=C(Cc1ccc(NC(=O)c2ccc(O)c(-c3ccc(Cl)c(Cl)c3)c2)cc1)NCCN1CCOCC1 [TCMDC-140853] with P. falciparum stage V gametocytes and state it.
## Result -3.124

## Task Recall the recorded % Inhibition for COc1cc(C(=O)NC2CCN(Cc3ccccc3)CC2)ccc1-c1nc2c(Cl)cc(C(F)(F)F)cc2[nH]1 [TCMDC-140085] with P. falciparum stage V gametocytes and state it.
## Result -15.98

## Task Recall the recorded % Inhibition for Cc1ccc(Cn2c(N3CCC(C(=O)NCc4ccccn4)CC3)nc3ccccc32)cc1 [TCMDC-125442] with P. falciparum stage V gametocytes and state it.
## Result 35.66

## Task Recall the recorded % Inhibition for CCC(C)c1ccc(Nc2nc(C)cc(N(CC)CCCN3CCCCC3)n2)cc1 (stereo not shown) [TCMDC-132456] with P. falciparum stage V gametocytes and state it.
## Result -18.05

## Task Recall the recorded % Inhibition for Oc1ccc(CCNc2nc(NCc3ccc4cc(Cl)ccc4c3)nc(N3CCNCC3)n2)cc1 [TCMDC-133782] with P. falciparum stage V gametocytes and state it.
## Result -8.892
